# Test system: HT-29 cells
# experiment: Hoechst/propidium iodide cell death assay in HT-29
# Type: cell-based, human
# measurement_setup: Homo sapiens, HT-29, 48 h, HT-29; 48h; 20 μM; read-out: Percentage of cell death % 48h, HT-29
Where a name gives a salt, the structure may show the parent alone.
# cytotoxicity at 20 µM annotations

- compound: "Cc1cc(Nc2cc(CN3CCOCC3)c3nc(C)c(Cc4ccc(Cl)cc4F)n3n2)n[nH]1 [LY2784544]"
  units_text: "%"
  cytotoxicity at 20 µM: 55.6
- compound: "O=C1c2c(O)ccc(O)c2C(=O)c2c(NCCNCCO)ccc(NCCNCCO)c21 [Mitoxantrone HCl]"
  units_text: "%"
  cytotoxicity at 20 µM: 0.0037
- compound: "Cn1ncc(Cl)c1-c1cc(C(=O)N[C@H](CN)Cc2cccc(F)c2)sc1Cl [Afuresertib]"
  units_text: "%"
  cytotoxicity at 20 µM: 37.5
- compound: "CC[C@H](c1ccc(O)cc1)[C@@H](CC)c1ccc(O)cc1 [Hexestrol]"
  units_text: "%"
  cytotoxicity at 20 µM: 3.31
- compound: "c1ccc(-c2ccc(C(c3ccccc3)n3ccnc3)cc2)cc1 (stereo not shown) [Bifonazole]"
  units_text: "%"
  cytotoxicity at 20 µM: 2.62
- compound: "Clc1ccc(COC(Cn2ccnc2)c2ccc(Cl)cc2Cl)c(Cl)c1 (stereo not shown) [Miconazole]"
  units_text: "%"
  cytotoxicity at 20 µM: 5.75
- compound: "C=C[C@@H]1C[C@]1(NC(=O)[C@@H]1C[C@@H](Oc2ncc(OC)c3ccc(Cl)cc23)CN1C(=O)[C@@H](NC(=O)OC(C)(C)C)C(C)(C)C)C(=O)NS(=O)(=O)C1CC1 [Asunaprevir (BMS-650032), Asunaprevir]"
  units_text: "%"
  cytotoxicity at 20 µM: 3.86

====

# System: HT-29 cells
# experiment: Hoechst/propidium iodide cell death assay in HT-29
# Type: cell-based, human
# measurement_setup: Homo sapiens, HT-29, 24 h, 20 µM, 24 h; read-out: Percentage of cell death % 24h HT-29
# Excerpt: A high-content imaging system (PerkinElmer; Operetta CLS), was used to quantify cell death and apoptosis by calculating the number of propidium iodide-positive cells relative to Hoechst-positive cells, and the number of Annexin V-positive cells relative to Hoechst-positive cells, respectively.
Param threshold (2%) applies to cytotoxicity at 20 µM; output YES when value >= threshold, NO when value < threshold.

- compound: "CCCCCCCCc1ccc(CCC(N)(CO)CO)cc1 [Fingolimod (FTY720), Fingolimod]"
  qualitative_label: "YES"
- compound: "CC(C)=CCC/C(C)=C/CC/C(C)=C/CSc1ccccc1C(=O)O [Salirasib]"
  qualitative_label: "NO"
- compound: "C=C1/C(=C\\C=C2/CCC[C@]3(C)[C@@H]([C@H](C)/C=C/[C@@H](O)C4CC4)CC[C@@H]23)C[C@@H](O)C[C@@H]1O [Calcipotriol]"
  qualitative_label: "NO"
- compound: "CC(C)(C)C#Cc1cc(N(C(=O)[C@H]2CC[C@H](C)CC2)[C@H]2CC[C@H](O)CC2)c(C(=O)O)s1 [VX-222 (VCH-222, Lomibuvir), Lomibuvir]"
  qualitative_label: "YES"
- compound: "CN1CCN(c2ccc(C(=O)Nc3n[nH]c4ccc(Cc5cc(F)cc(F)c5)cc34)c(NC3CCOCC3)c2)CC1 [Entrectinib]"
  qualitative_label: "YES"
- compound: "Clc1ccc(C(Cn2ccnc2)OCc2ccsc2Cl)c(Cl)c1 (centres unmarked) [Tioconazole]"
  qualitative_label: "YES"
- compound: "Clc1ccc(C(Cn2ccnc2)OCc2ccc(Sc3ccccc3)cc2)c(Cl)c1 (centres unmarked) [Fenticonazole Nitrate]"
  qualitative_label: "NO"
- compound: "Clc1ccc(C(Cn2ccnc2)OCc2csc3c(Cl)cccc23)c(Cl)c1 (centres unmarked) [Sertaconazole nitrate]"
  qualitative_label: "YES"

====

Listed next: entries and their corresponding cytotoxicity at 20 µM.
# Tested on: HT-29 cells
# experiment: Hoechst/propidium iodide cell death assay in HT-29
# Assay type: cell-based, human
# measurement_setup: Homo sapiens, HT-29, 24 h, 20 µM, 24 h; read-out: Percentage of cell death % 24h HT-29
# Text: A high-content imaging system (PerkinElmer; Operetta CLS), was used to quantify cell death and apoptosis by calculating the number of propidium iodide-positive cells relative to Hoechst-positive cells, and the number of Annexin V-positive cells relative to Hoechst-positive cells, respectively.
experimental_endpoint: cytotoxicity at 20 µM

- compound: "CN(C)c1ccc(C(=C2C=CC(=[N+](C)C)C=C2)c2ccc(N(C)C)cc2)cc1"
  reported_value: "94.9%"
- compound: "OC(CNCC(O)C1CCc2cc(F)ccc2O1)C1CCc2cc(F)ccc2O1 (centres unmarked)"
  reported_value: "9.8%"
- compound: "COc1ccc2c(O[C@@H]3C[C@H]4C(=O)N[C@]5(C(=O)NS(=O)(=O)C6CC6)C[C@H]5/C=C\\CCCCN(C)C(=O)[C@@H]4C3)cc(-c3nc(C(C)C)cs3)nc2c1C"
  reported_value: "38.8%"
- compound: "CCCCCCCCCCCCCCCC[N+](C)(C)CCN(Cc1ccc(OC)cc1)c1ncccn1 [Thonzonium Bromide]"
  reported_value: "94.9%"
- compound: "CC/C(=C(/CC)c1ccc(O)cc1)c1ccc(O)cc1"
  reported_value: "0.869%"
- compound: "CCN1CCN(c2cc(-c3ccc(F)cc3)c3c(n2)CCCCCC3)CC1"
  reported_value: "2.57%"
- compound: "C=CCc1ccc(O)c(-c2ccc(O)c(CC=C)c2)c1"
  reported_value: "8.61%"
- compound: "Clc1ccc(C(Cn2ccnc2)OCc2c(Cl)cccc2Cl)c(Cl)c1 (centres unmarked) [Isoconazole nitrate]"
  reported_value: "1.88%"

====

# tested_system: His-14-3-3ζ (Homo sapiens, UniProt P63104)
# Construct: made in house; host or cells: Escherichia coli BL21 LOBSTR-RIL
# experiment: Surface plasmon resonance (SPR) on immobilized His-14-3-3ζ
# Format: binding
# measurement_setup: SPR curve at 0.0009 mM ligand

- molecule: "OC1(c2ccc(Cl)c(C(F)(F)F)c2)CCN(CCCC(c2ccc(F)cc2)c2ccc(F)cc2)CC1"
  Bmax ([Signal (RU)]): 99.25
- molecule: "O=C(NC1CCN(CCCCC2(C(=O)NCC(F)(F)F)c3ccccc3-c3ccccc32)CC1)c1ccccc1-c1ccc(C(F)(F)F)cc1 [Lomitapide]"
  Bmax ([Signal (RU)]): 55.11
- molecule: "CCCCCCCCc1ccc(CCC(N)(CO)CO)cc1"
  Bmax ([Signal (RU)]): 2.87
- molecule: "CC(C)(C)c1ccc(C(O)CCCN2CCC(C(O)(c3ccccc3)c3ccccc3)CC2)cc1 (stereo not shown)"
  Bmax ([Signal (RU)]): 166.72

====

Property: inhibition; scope: individual molecules
# tested_system: 14-3-3ζ:BAD-112-136F interactions (Homo sapiens, UniProt P63104)
# Construct: expressed in transfected cells; host or cells: NIH-3T3 fibroblasts, bi-directional pBI-CMV1 plasmid
# Sequence (P63104 whole entry): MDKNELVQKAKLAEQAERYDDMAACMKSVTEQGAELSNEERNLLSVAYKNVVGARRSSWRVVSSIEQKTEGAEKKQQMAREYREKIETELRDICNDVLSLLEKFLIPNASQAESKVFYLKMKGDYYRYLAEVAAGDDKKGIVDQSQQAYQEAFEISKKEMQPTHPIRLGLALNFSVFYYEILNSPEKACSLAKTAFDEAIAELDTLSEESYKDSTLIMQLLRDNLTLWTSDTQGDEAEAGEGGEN
# experiment: BRET sensor screen for disruption of 14-3-3ζ-Rluc8:BAD-112-136F-mCitrine in living NIH-3T3 cells
# Format: cell-based, murine
# Set-up: dose or concentration left out as unconfirmed
# measurement_setup: NIH3T3, 3 h, NIH-3T3 cells; hits from the primary screen; read-out: BRET reduction on NIH-3T3
Where a name gives a salt, the structure may show the parent alone.

- molecule: "O=C1c2c(O)ccc(O)c2C(=O)c2c(NCCNCCO)ccc(NCCNCCO)c21 [Mitoxantrone HCl]"
  inhibition, %: 25.5
- molecule: "Cc1c(C)c2c(c(C)c1O)CCC(C)(COc1ccc(CC3SC(=O)NC3=O)cc1)O2 (stereo not shown)"
  inhibition, %: 30.9
- molecule: "OC(CNCC(O)C1CCc2cc(F)ccc2O1)C1CCc2cc(F)ccc2O1 (stereo not shown)"
  inhibition, %: 34.7
- molecule: "Cc1ccc(Sc2ccccc2N2CCNCC2)c(C)c1"
  inhibition, %: 35.4
- molecule: "CCOC(=O)C1=C(C)NC(C)=C(C(=O)OCC)C1c1ccccc1/C=C/C(=O)OC(C)(C)C"
  inhibition, %: 27.1
- molecule: "CC(C)(C)c1ccc(C(O)CCCN2CCC(C(O)(c3ccccc3)c3ccccc3)CC2)cc1 (stereo not shown)"
  inhibition, %: 45.6
- molecule: "CCOc1cc(CC(=O)N[C@@H](CC(C)C)c2ccccc2N2CCCCC2)ccc1C(=O)O [Repaglinide]"
  inhibition, %: 28.4
- molecule: "O=C(NC1CCN(CCCCC2(C(=O)NCC(F)(F)F)c3ccccc3-c3ccccc32)CC1)c1ccccc1-c1ccc(C(F)(F)F)cc1 [Lomitapide]"
  inhibition, %: 40.8
- molecule: "CC[C@H]1[C@@H](O)[C@@H]2[C@H](CC[C@]3(C)[C@@H]([C@H](C)CCC(=O)O)CC[C@@H]23)[C@@]2(C)CC[C@@H](O)C[C@@H]12"
  inhibition, %: 36.4
- molecule: "CCc1c(Cl)c(O)c(Cl)c(O)c1C(=O)O[C@H]1[C@H](O)[C@H](OC)[C@H](OC/C2=C\\C=C\\C[C@H](O)/C(C)=C/[C@H](CC)[C@@H](O[C@@H]3OC(C)(C)[C@@H](OC(=O)C(C)C)[C@H](O)[C@@H]3O)/C(C)=C/C(C)=C/C[C@@H]([C@@H](C)O)OC2=O)O[C@@H]1C"
  inhibition, %: 32.5
- molecule: "CN(C(=O)CN(CCO)CC(=O)N(C)C(C)(C)Cc1ccccc1)C(C)(C)Cc1ccccc1"
  inhibition, %: 28.9
- molecule: "C[C@H](CCC(=O)O)[C@H]1CC[C@H]2[C@@H]3[C@H](O)C[C@@H]4C[C@H](O)CC[C@]4(C)[C@H]3CC[C@]12C"
  inhibition, %: 31.3
- molecule: "C=C[C@@H]1C[C@]1(NC(=O)[C@@H]1C[C@@H]2CN1C(=O)[C@H](C(C)(C)C)NC(=O)O[C@@H]1C[C@H]1CCCCCc1nc3ccc(OC)cc3nc1O2)C(=O)NS(=O)(=O)C1CC1"
  inhibition, %: 33.9
